- METHOD_DESCRIPTION: chemical genetic growth profiling, strain panel (AID 1159580);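 also: tested at 20 µM; growth read once vehicle control cultures reached saturation at 30 °C; 1 = growth at the plate median or of vehicle wells; lower values mean less growth of the strain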
- CONDITION_SUMMARY: S. cerevisiae deletion strains, growth OD, locus YML070W, strain DAK1, stronger effect = lower value
Screen size: about 5,500 compounds; about 2,000 (36%) were called active. Not shown: some 18% with an inconclusive outcome. The list shows a part of the results.
EXPERIMENTAL_ENDPOINT: normalized growth

>>> print(df.to_string())
                                    molecule  experimental_endpoint  observed_value
 0  CC(C)/C(=N/OC(=O)c1ccc([N+](=O)[O-])cc1)c1ccccc1      normalized growth           0.909
 1  N/C(=N/OC(=O)c1cnn(-c2ccc([N+](=O)[O-])cc2)c1C(F)(F)F)c1ccc(Cl)cc1      normalized growth            0.92
 2  N/C(=N/OC(=O)c1ccc([N+](=O)[O-])cc1)c1c(Cl)cccc1Cl      normalized growth           0.883
 3  O=C(Nc1cc2ccccc2s1)N1CCN(Cc2c(F)cccc2Cl)CC1      normalized growth           0.915
 4          O=C1OC(c2ccccc2)=C/C1=C/c1ccccc1      normalized growth           0.892
 5  OC(COCc1ccccc1)Cn1c2ccccc2c2ccccc21 (stereo unspecified)      normalized growth           0.876
 6       COC(=O)/C=C1/OC(c2ccc(OC)cc2)=CC1=O      normalized growth          0.0894
 7    Cc1cc(Br)c(O)c(/C=N\NC(=S)NC(C)(C)C)c1      normalized growth           0.917
 8  O=C(Nc1ccc(SC(F)(F)F)cc1)Nc1ccc(Oc2cccc(C(F)(F)F)c2)nc1      normalized growth           0.964
 9       O=C1Nc2ccccc2/C1=C\c1c[nH]c2ccccc12      normalized growth           0.219
10  FC(F)(F)Sc1ccc(OCc2n[nH]c(=S)n2-c2ccccc2)cc1      normalized growth            0.92

* * *

- METHOD_DESCRIPTION: chemical genetic growth profiling, strain panel (AID 1159580)
- CONDITION_SUMMARY: S. cerevisiae deletion strains, growth OD, locus YCR088W, strain abp1, stronger effect = lower value
Out of some 5,500 compounds screened, about 2,000 (36%) were called active. About 18% were inconclusive and are not listed. The list shows a part of the results.
EXPERIMENTAL_ENDPOINT: normalized growth

MOLECULE	OBSERVED_VALUE
Cc1c(C(N)=O)cc([N+](=O)[O-])cc1[N+](=O)[O-]	1.01
C=CCSSSCC=C	0.984
CC[C@@]1(O)C(=O)OCc2c1cc1n(c2=O)Cc2cc3cc(O)ccc3nc2-1	1.01
C[C@H]1O[C@@H](O[C@H]2[C@@H](O)C[C@H](O[C@H]3[C@@H](O)C[C@H](O[C@H]4CC[C@]5(C)C6C[C@@H](O)[C@]7(C)[C@@H](C8=CC(=O)OC8)CC[C@]7(O)C6CC[C@@H]5C4)O[C@@H]3C)O[C@@H]2C)C[C@H](O)[C@@H]1O (stereo partly specified)	0.997
CO[C@H]1[C@@H](O)[C@@H](C)O[C@H](O[C@H]2CCC3(C)C4CCC5(C)[C@@H](C6=CC(=O)OC6)CC[C@]5(O)[C@@H]4CC[C@]3(O)C2)[C@@H]1O (stereo partly specified)	1.02
COc1nc(NC(C)C)nc(NC(C)C)n1	1.02
CCCc1nn(C)c2c(=O)[nH]c(-c3cc(S(=O)(=O)N4CCN(C)CC4)ccc3OCC)nc12	0.983
COc1ccc(-c2cc(=O)c3c(O)cc(O)c(-c4cc(-c5cc(=O)c6c(O)cc(O)cc6o5)ccc4OC)c3o2)cc1	1.02
NCCCC(O)(P(=O)(O)O)P(=O)(O)O	0.972
C[N+]1(C)C[C@H](O)[C@H](C(=O)[O-])C1	1.01
NC(=O)c1ccccc1O	0.974
C[C@@H]1CC[C@@]23CCC4(C)[C@@](C=CC5[C@@]6(C)CC[C@H](O)C(C)(C)C6CC[C@]54C)(OC2=O)C3[C@H]1C (stereo partly specified)	1
NCC(O)CC(=O)O (stereo unspecified)	0.977
CCCc1nc(C)c2c(=O)[nH]c(-c3cc(S(=O)(=O)N4CCN(CC)CC4)ccc3OCC)nn12	0.98
CC1CCCC(C)N1NC(=O)c1ccc(Cl)c(S(N)(=O)=O)c1 (stereo unspecified)	1.01
O=C(O)c1ccccc1O	0.981

* * *

- METHOD_DESCRIPTION: chemical genetic growth profiling, strain panel (AID 1159580)
- CONDITION_SUMMARY: S. cerevisiae deletion strains, growth OD, locus YNL248C, strain rpa49, stronger effect = lower value
Screen size: about 5,500 compounds; about 2,000 (36%) were called active. Not shown: some 18% with an inconclusive outcome. The list shows a part of the results.
EXPERIMENTAL_ENDPOINT: normalized growth

>>> print(df.to_string())
                                   compound  observed_value
0  O=c1c2cc(O)c(O)cc2oc2cc(O)c(C3O[C@H](CO)[C@H](O)[C@@H](O)[C@H]3O)c(O)c12 (some centres undefined)           0.992
1  NC(=O)c1cc([N+](=O)[O-])cc([N+](=O)[O-])c1           0.879
2                  CC1=CC(=O)C(C(C)C)=CC1=O           0.409
3  O=c1c(-c2ccc(O)cc2)coc2c(C3O[C@H](CO)[C@@H](O)[C@H](O)[C@H]3O)c(O)ccc12 (some centres undefined)            1.03

* * *

- METHOD_DESCRIPTION: chemical genetic growth profiling, strain panel (AID 1159580);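 also: tested at 20 µM; growth read once vehicle control cultures reached saturation at 30 °C; 1 = growth at the plate median or of vehicle wells; lower values mean less growth of the strain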
- CONDITION_SUMMARY: S. cerevisiae deletion strains, growth OD, locus YDR052C, strain DBF4, stronger effect = lower value
Screen size: about 5,500 compounds; about 2,000 (36%) were called active. About 18% were inconclusive and are not listed. Some of the results follow.
EXPERIMENTAL_ENDPOINT: normalized growth

>>> print(df.to_string())
                               given_smiles  observed_value
0  O=C(Nc1ccc(SC(F)(F)F)cc1)Nc1ccc(Oc2cccc(C(F)(F)F)c2)nc1           0.996
1   COc1ccc(N=C2SCC(c3ccc(C)cc3)=NN2CCO)cc1           0.988
2  N/C(=N/OC(=O)Nc1cccc(C(F)(F)F)c1)c1ccc(OC(F)(F)F)cc1           0.998

* * *

- METHOD_DESCRIPTION: chemical genetic growth profiling, strain panel (AID 1159580);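 also: tested at 20 µM; growth read once vehicle control cultures reached saturation at 30 °C; 1 = growth at the plate median or of vehicle wells; lower values mean less growth of the strain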
- CONDITION_SUMMARY: S. cerevisiae deletion strains, growth OD, locus YLR342W, strain FKS1 (second series), stronger effect = lower value
Hit rate of the full screen: of about 5,500 compounds, about 2,000 (36%) were called active. Roughly 18% stayed inconclusive and do not appear here. The list shows a part of the results.
Field 'label' (enum: fulfilled / not fulfilled). Set to fulfilled when normalized growth is strictly under 1; else not fulfilled.

MOLECULE	ASSIGNED_CLASS
COC(=O)[C@H]1[C@H]2C[C@H]3c4[nH]c5cc(OC)ccc5c4CCN3C[C@H]2C[C@@H](OC(=O)c2cc(OC)c(OC)c(OC)c2)[C@@H]1OC	not fulfilled
CO[C@@H]1C[C@H](O[C@H]2CC[C@]3(C)C4CC[C@]5(C)[C@@H](C6=CC(=O)OC6)CC[C@]5(O)[C@@H]4CC[C@]3(O)C2)O[C@H](C)[C@@H]1O (stereo not given in full)	fulfilled
COc1nc(NC(C)C)nc(NC(C)C)n1	not fulfilled

* * *

- METHOD_DESCRIPTION: chemical genetic growth profiling, strain panel (AID 1159580);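 also: tested at 20 µM; growth read once vehicle control cultures reached saturation at 30 °C; 1 = growth at the plate median or of vehicle wells; lower values mean less growth of the strain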
- CONDITION_SUMMARY: S. cerevisiae deletion strains, growth OD, locus YLR113W, strain HOG1, stronger effect = lower value
The whole screen tested about 5,500 compounds, of which about 2,000 (36%) were called active. Not shown: some 18% with an inconclusive outcome. The list shows a part of the results.
EXPERIMENTAL_ENDPOINT: normalized growth

MOLECULE	EXPERIMENTAL_ENDPOINT	OBSERVED_VALUE
Nc1nc(/C(=C/CC(=O)O)C(=O)N[C@@H]2C(=O)N3C(C(=O)O)=CCS[C@H]23)cs1	normalized growth	0.998
COc1ccc(-c2cc(=O)c3c(OC)c(OC)c(OC)cc3o2)cc1OC	normalized growth	0.968
C[C@H]1[C@H](C)CC[C@]2(C(=O)O)CC[C@]3(C)C(=CCC4[C@@]5(C)C[C@@H](O)[C@H](O)[C@@](C)(CO)C5CC[C@]43C)[C@H]12 (stereo partly drawn)	normalized growth	0.721
N#Cc1c(Cl)cccc1Cl	normalized growth	0.987
CO[C@@H]1[C@@H](OC(N)=O)[C@@H](O)[C@H](Oc2ccc3c(O)c(NC(=O)c4ccc(O)c(CC=C(C)C)c4)c(=O)oc3c2C)OC1(C)C	normalized growth	0.793
CO/N=C1/CC(C)(C)Cc2c(-c3ccn(C(=O)Nc4cccc(Cl)c4)n3)sc(SC)c21	normalized growth	0.968
C[C@H]1[C@H](C)CC[C@]2(C(=O)O)CC[C@]3(C)C(=CCC4[C@@]5(C)C[C@@H](O)[C@H](O)[C@@](C)(CO)C5[C@H](O)C[C@]43C)[C@H]12 (stereo partly drawn)	normalized growth	0.673
O=c1c2cc(O)c(O)cc2oc2cc(O)c(C3O[C@H](CO)[C@H](O)[C@@H](O)[C@H]3O)c(O)c12 (stereo partly drawn)	normalized growth	1.1
Cc1cc(-c2onc(C)c2C(=O)Sc2ccccc2)no1	normalized growth	0.453
CCC(=O)O[C@]1(C(=O)CCl)[C@@H](C)CC2C3CCC4=CC(=O)C=C[C@]4(C)[C@@]3(F)[C@@H](O)C[C@@]21C (stereo partly drawn)	normalized growth	0.982
COC(=O)NC(=S)Nc1ccccc1NC(=S)NC(=O)OC	normalized growth	0.983
O=C(O/N=C1/CCCc2[nH]c3ccccc3c21)C1CCCCC1	normalized growth	0.966
O=c1[nH][nH]c(=O)n1CCCc1cc2cccc3ccc4cccc1c4c32	normalized growth	0.922
CC1(C)S[C@@H]2C(N3C(=O)[C@@H](c4ccccc4)NC3(C)C)C(=O)N2[C@H]1C(=O)O (stereo partly drawn)	normalized growth	1
CC(=O)NCCc1ccc(O)c(-c2c(O)c(O)c3c(c2O)C(=O)c2c(cc(O)c(C(=O)O)c2C(=O)O)C3=O)c1	normalized growth	1.01
NS(=O)(=O)c1cc2c(cc1C(F)(F)F)NC(Cc1ccccc1)NS2(=O)=O (stereo not drawn)	normalized growth	0.983
CC1=CC(=O)C(C(C)C)=CC1=O	normalized growth	0.986
O=C(O/N=C1/CCCc2[nH]c3ccccc3c21)c1ccc(Cl)cc1Cl	normalized growth	0.806
CC1CCCC(C)N1NC(=O)c1ccc(Cl)c(S(N)(=O)=O)c1 (stereo not drawn)	normalized growth	0.993
CCc1ccc2c(O)c3c(cc2c1C(=O)OC)C(=O)c1c(O)ccc(O)c1C3=O	normalized growth	0.988
COc1ccc(-c2cc(=O)c3c(O)c(OC)c(OC)c(OC)c3o2)cc1OC	normalized growth	1
CC(C)(C)NCC(O)COc1cccc2c1C[C@H](O)[C@H](O)C2 (stereo partly drawn)	normalized growth	1.05
CCC(=O)NCC[C@@H]1CCc2ccc3c(c21)CCO3	normalized growth	0.95
CCOC(=O)NC(=S)Nc1ccc(C(C)(C)C)cc1NC(=S)NC(=O)OCC	normalized growth	1.02
CC1=C2C(O)C(=O)OC3CC4C(C)(C)C(=O)C=C[C@]4(C)C(CC1)[C@]23C (stereo partly drawn)	normalized growth	0.984
COc1ccc(-c2cc(=O)c3c(O)cc(O)cc3o2)cc1	normalized growth	0.694
CC(C)c1cccc(C(C)C)c1O	normalized growth	0.996
CCCCC(=O)O[C@]1(C(=O)CO)[C@@H](C)CC2C3CCC4=CC(=O)C=C[C@]4(C)[C@@]3(F)C(O)C[C@@]21C (stereo partly drawn)	normalized growth	0.956
